- experimental.details: Free energy of hydration predicted with the QM-parameterized force field model (ARROW FF), classical MD and PIMD simulation in a water box
- run.parameters: Table 3; absolute error of PIMD8 hydration free energy vs experiment

compound	unit.abbreviation	water Arrow PIMD8 Error
CCOC(C)=O [EthylAcetate]	kJ/mol	1.34
CC(=O)O [AceticAcid]	kJ/mol	1.42
C1CCCCC1 [Cyclohexane]	kJ/mol	0.418
CCN [ethylamine]	kJ/mol	0.502
C1CCCCCC1 [Cycloheptane]	kJ/mol	0.502
CC(C)(C)C [NeoPentane]	kJ/mol	0.502
CN [methylamine]	kJ/mol	0.669
c1c[nH]cn1 [Imidazole]	kJ/mol	1.21
CCCCCCCC [Octane]	kJ/mol	0.25
CCCO [Propanol]	kJ/mol	0.753
CCCCCCCCO [Octanol]	kJ/mol	0.92
CCCCCO [1-Pentanol]	kJ/mol	0.21
CS [MethaneThiol]	kJ/mol	1.8
CC(C)(C)O [2-Methyl-2-Propanol]	kJ/mol	1.46
c1ccncc1 [pyridine]	kJ/mol	0.33
CCC(=O)O [propionicacid]	kJ/mol	1.05
CCC(=O)OC [MethylPropionate]	kJ/mol	0.418
CO [Methanol]	kJ/mol	1.46
CCCC=O [buytyraldehyde]	kJ/mol	0.29
CC [Ethane]	kJ/mol	0.502
CCSC [EthylMethylSulfide]	kJ/mol	0.46
c1ccc(-c2ccccc2)cc1 [Biphenyl]	kJ/mol	0.544
c1ccc2cc3ccccc3cc2c1 [Anthracene]	kJ/mol	0.29
CSC [DiMethylSulfide]	kJ/mol	0.669
CN(C)C [trimethylamine]	kJ/mol	0.084
Cc1ccccc1 [Toluene]	kJ/mol	0.418
c1ccc2c(c1)ccc1ccccc12 [phenanthrene]	kJ/mol	0.38
CC(C)=O [Acetone]	kJ/mol	1.3
Oc1ccccc1 [Phenol]	kJ/mol	0.753
C1CC1 [Cyclopropane]	kJ/mol	1.21
CNC(C)=O [N-Methylacetamide]	kJ/mol	2.05
CCCCN [butanamine]	kJ/mol	1.17
c1cc[nH]c1 [Pyrrole]	kJ/mol	2.64
Cc1cccc(O)c1 [m-cresol]	kJ/mol	4.31
CCCOC(C)=O [PropylAcetate]	kJ/mol	0.29
CCO [Ethanol]	kJ/mol	0.29
O [Water]	kJ/mol	0.711
c1ccccc1 [Benzene]	kJ/mol	0.711
OC1CCCCC1 [Cyclohexanol]	kJ/mol	1.42
Cc1c[nH]c2ccccc12 [3-methyl-indole]	kJ/mol	4.27
CCCS [Propanethiol]	kJ/mol	1.67
CCC [Propane]	kJ/mol	0
CCCCS [1-Butanethiol]	kJ/mol	2.09
COC [DiMethylEther]	kJ/mol	1.55
C [Methane]	kJ/mol	0.38
CCC(C)=O [2-Butanone]	kJ/mol	0.669
CCCCOC(C)=O [ButylAcetate]	kJ/mol	0.29
C=CCCC [pent-1-ene]	kJ/mol	1.05
C=CC=C [Buta-13-diene]	kJ/mol	1.46
C=CC [Propene]	kJ/mol	0.21
CC(C)C [Isobutane]	kJ/mol	0.084
Nc1ccccc1 [Aniline]	kJ/mol	0.25
CNC [dimethylamine]	kJ/mol	0.962
CCS [EthaneThiol]	kJ/mol	1.8
CCCCC(C)=O [hexa2none]	kJ/mol	0.837
CC=O [acetaldehyde]	kJ/mol	1.13
CCCCCC [Hexane]	kJ/mol	0.25
CCCC(=O)O [butyricacid]	kJ/mol	1.67
CCCC(C)O (centres unmarked) [2-Pentanol]	kJ/mol	0.33
C1CCCC1 [Cyclopentane]	kJ/mol	0.502
CCC(C)O (centres unmarked) [2-Butanol]	kJ/mol	0.33
CCCC [Butane]	kJ/mol	0.17

* * *

- experimental.details: Free energy of hydration predicted with the QM-parameterized force field model (ARROW FF), classical MD and PIMD simulation in a water box
- run.parameters: Table 5; error of Arrow PIMD8 hydration free energy vs experiment

compound	Arrow error [kcal/mol]
Cc1ccccc1 [Toluene]	0.10
CN(C)C [trimethylamine]	0.02
c1cc[nH]c1 [Pyrrole]	0.63
CCCCS [1-Butanethiol]	0.50
CCN [ethylamine]	0.12
CO [Methanol]	0.33
CC(C)O [2-Propanol]	0.00
CCC=O [propionaldehyde]	0.45
CCSC [EthylMethylSulfide]	0.11

* * *

- experimental.details: Free energy of hydration by COSMO implicit solvent model (MolPro ver. 2012)
- run.parameters: absolute error vs Exp (hydration)
param class (str): category from COSMO/Molpro Error; see ranges label 0 (below 2 kcal/mol), label 1 (2 kcal/mol to below 3 kcal/mol), label 2 (3 kcal/mol or more)

molecule	qualitative.label
CCSC [EthylMethylSulfide]	label 1
CCCCOC(C)=O [ButylAcetate]	label 2
CNC	label 0
CCC	label 1
CS	label 1
CC(=O)N(C)C [DiMethylAcetamide]	label 1
c1ccc2cc3cc4ccccc4cc3cc2c1	label 0
Nc1ccccc1	label 1
CCCC(C)O (centres unmarked)	label 0
C1CCCCC1	label 0
CC	label 1
CCCO	label 0
CCO	label 0
CC(N)=O [Acetamide]	label 2
CCCC(C)=O	label 2
CN(C)C	label 0
CC=O	label 2
O	label 1
CN	label 0
C1CCCCCC1	label 0
CCC=O	label 2
Oc1ccccc1	label 0
CNC(C)=O [N-Methylacetamide]	label 2
CCN	label 0
CCCC=O	label 2
c1c[nH]cn1	label 2
CCC(C)=O	label 2
C=CCC	label 2
CCCCCO	label 1
CCCCC(C)=O	label 2
C=CC=C	label 2
CCCC	label 1
c1cc[nH]c1	label 1
CCCC(=O)O	label 1
CCCOC	label 2
OC1CCCCC1	label 0
CCC(=O)OC [MethylPropionate]	label 2
CCC(=O)CC	label 2
CCCS	label 1
CCC(N)=O [propionamide]	label 2
CCOC(C)=O [EthylAcetate]	label 2
c1ccccc1	label 1
CCCCCCCCO	label 1
CCCCCCCC	label 2
CCC(O)CC	label 0
CC(C)(C)C	label 2
c1ccc2cc3ccccc3cc2c1	label 0
CCCCN	label 0

* * *

- experimental.details: Free energy of hydration predicted by polarizable AMOEBA force field, from literature
- run.parameters: Table 5; error of AMOEBA hydration free energy vs experiment

compound	unit.abbreviation	AMOEBA error
CCO [Ethanol]	kcal/mol	0.32
CCCO [Propanol]	kcal/mol	0.07
CC [Ethane]	kcal/mol	0.06
CNC(C)=O [N-Methylacetamide]	kcal/mol	1.34

* * *

- experimental.details: Free energy of hydration predicted with the QM-parameterized force field model (ARROW FF), classical MD and PIMD simulation in a water box
- run.parameters: absolute error vs Exp (hydration)

smiles.input	Arrow PIMD8 Error [kJ/mol]
CCOCC	0.418
CC(=O)O	1.42
C=CCCC	1.05
CC(C)(C)C	0.502
CN	0.669
CC	0.502
CCN	0.502
CCCS	1.67
c1c[nH]cn1	1.21
CCC	0

* * *

- experimental.details: Free energy of hydration predicted by General Amber Force Field (GAFF), from literature
- run.parameters: Table 5; error of GAFF hydration free energy vs experiment

smiles.input	GAFF error
CCN	1.36 kcal/mol
CCCC	0.44 kcal/mol
c1ccncc1	1.24 kcal/mol
CCCCCCCC	0.25 kcal/mol
CNC	1.19 kcal/mol
COC	1.06 kcal/mol

* * *

- experimental.details: Free energy of hydration predicted with the QM-parameterized force field model (ARROW FF), classical MD and PIMD simulation in a water box
- run.parameters: Table 3; absolute error of MD hydration free energy vs experiment
Lab note: anything with water Arrow MD Error at or over 0.9 kcal/mol counts as 1.0; the rest go in 0.0.

molecule	qualitative.label
CSC [DiMethylSulfide]	0.0
CCCCS [1-Butanethiol]	1.0
C1CC1 [Cyclopropane]	0.0
CCCCC(C)=O [hexa2none]	0.0
c1ccncc1 [pyridine]	0.0
CCCOC(C)=O [PropylAcetate]	0.0
CCC(O)CC [3-Pentanol]	1.0
CCCC(C)O (stereo not drawn) [2-Pentanol]	1.0
CC(C)(C)O [2-Methyl-2-Propanol]	0.0
CCC(=O)OC [MethylPropionate]	0.0
CCS [EthaneThiol]	1.0
COC [DiMethylEther]	0.0
OC1CCCCC1 [Cyclohexanol]	1.0
c1ccccc1 [Benzene]	0.0
CN [methylamine]	0.0
c1ccc2cc3ccccc3cc2c1 [Anthracene]	0.0
CCO [Ethanol]	0.0
CCOCC [DiethylEther]	1.0
CC [Ethane]	0.0
C=CCC [But-1-ene]	0.0
CCCC(=O)O [butyricacid]	0.0
Oc1ccccc1 [Phenol]	1.0
CCCO [Propanol]	0.0
Nc1ccccc1 [Aniline]	0.0
CC(C)=O [Acetone]	0.0
Cc1c[nH]c2ccccc12 [3-methyl-indole]	1.0
C [Methane]	0.0
CCCOC [MethylPropylEther]	0.0
CCCS [Propanethiol]	0.0
CC(C)O [2-Propanol]	1.0
CNC [dimethylamine]	1.0
c1ccc2cc3cc4ccccc4cc3cc2c1 [tetracene]	0.0
C1CCCCC1 [Cyclohexane]	1.0
C=CC [Propene]	0.0
c1cc[nH]c1 [Pyrrole]	0.0
Cc1ccccc1 [Toluene]	0.0
CC(N)=O [Acetamide]	0.0
c1ccc(-c2ccccc2)cc1 [Biphenyl]	1.0
CS [MethaneThiol]	0.0
CCCCCCCC [Octane]	1.0
c1ccc2c(c1)ccc1ccccc12 [phenanthrene]	0.0
CCC(C)O (stereo not drawn) [2-Butanol]	1.0
CCCC [Butane]	0.0
CCC(N)=O [propionamide]	1.0
c1ccc2ccccc2c1 [Napthalene]	0.0
c1c[nH]cn1 [Imidazole]	0.0
CCCCCO [1-Pentanol]	1.0
CC=O [acetaldehyde]	0.0
C=CC=C [Buta-13-diene]	0.0
